- MEASUREMENT TARGET: Ferritin heavy chain (Homo sapiens)
- Sequence (P02794 whole entry): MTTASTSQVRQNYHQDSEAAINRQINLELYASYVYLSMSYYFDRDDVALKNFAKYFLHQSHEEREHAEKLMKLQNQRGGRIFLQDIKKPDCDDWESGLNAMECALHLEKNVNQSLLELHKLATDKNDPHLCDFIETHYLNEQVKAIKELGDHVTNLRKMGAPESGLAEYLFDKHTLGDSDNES
EXPERIMENTAL ENDPOINT: IC50 (nM)
Answers are plain numbers, in nM.

Just so you know, measured IC50 for C=C1CC[C@H]2O[C@]2(C)CC[C@@H]2[C@@H]1CC2(C)C [(-)-CARYOPHYLLENE OXIDE] came out at 1

* * *

- MEASUREMENT TARGET: Patatin-like phospholipase domain-containing protein 2 (Homo sapiens, UniProt Q96AD5)
- Sequence (Q96AD5 whole entry): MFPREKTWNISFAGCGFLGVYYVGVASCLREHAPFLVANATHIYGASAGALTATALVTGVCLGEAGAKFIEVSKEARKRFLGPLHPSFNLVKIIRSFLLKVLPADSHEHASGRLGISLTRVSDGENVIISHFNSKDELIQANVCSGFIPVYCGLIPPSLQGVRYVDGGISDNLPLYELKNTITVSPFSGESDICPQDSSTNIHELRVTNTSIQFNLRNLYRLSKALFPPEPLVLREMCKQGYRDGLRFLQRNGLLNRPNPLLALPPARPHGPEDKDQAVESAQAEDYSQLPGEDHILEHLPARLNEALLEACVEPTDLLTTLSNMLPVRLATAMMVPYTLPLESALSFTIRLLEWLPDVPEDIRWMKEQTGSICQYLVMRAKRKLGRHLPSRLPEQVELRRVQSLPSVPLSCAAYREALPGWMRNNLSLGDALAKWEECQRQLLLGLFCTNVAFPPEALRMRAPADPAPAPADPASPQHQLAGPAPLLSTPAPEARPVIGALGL
EXPERIMENTAL ENDPOINT: pKi
One number for each entry, as −log10 of the molar value.

Just so you know, measured pKi for N[C@@H]1CCCN(c2c(/C=C3\SC(=O)NC3=O)cccc2-c2ccccc2)C1 came out at 10.77

* * *

- MEASUREMENT TARGET: Tubulin
- CONDITION CONTEXT: k562
- Description: Inhibition of microtubule polymerization in human K562 cells measured for 60 mins by fluorescence based analysis
EXPERIMENTAL ENDPOINT: IC50 (nM)
Answers are plain numbers, in nM.

>  <SMI>
O=C1C[C@@H](c2ccc(O)cc2)Oc2cc(O)ccc21

>  <MEASURED NUMBER>
340

$$$$
>  <SMI>
COc1ccc(S(=O)(=O)Nc2cccnc2Nc2ccc(O)cc2)cc1

>  <MEASURED NUMBER>
700

$$$$

Now examine the next entry.
Just so you know, measured IC50 for CCOC(=O)c1[nH]c(Br)c(-c2ccc(OC)c(OC)c2)c1Br came out at 360

* * *

- MEASUREMENT TARGET: Translocator protein (Mus musculus)
- Sequence (P50637 whole entry, looked up): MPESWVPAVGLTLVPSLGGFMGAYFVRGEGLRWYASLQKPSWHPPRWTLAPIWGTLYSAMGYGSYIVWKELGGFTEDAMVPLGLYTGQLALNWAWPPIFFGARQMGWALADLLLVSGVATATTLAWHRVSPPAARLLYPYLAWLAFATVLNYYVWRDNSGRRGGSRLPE
EXPERIMENTAL ENDPOINT: Ki (nM)
Give bare numbers, in nM.

Just so you know, measured Ki for CC[C@@H](C)N(C)C(=O)c1cc2ccccc2c(-c2ccccc2Cl)n1 [(R)PK-11195] came out at 0.4

* * *

- MEASUREMENT TARGET: Phosphatidylinositol 3-kinase catalytic subunit type 3 (Homo sapiens)
- Sequence (Q8NEB9 whole entry): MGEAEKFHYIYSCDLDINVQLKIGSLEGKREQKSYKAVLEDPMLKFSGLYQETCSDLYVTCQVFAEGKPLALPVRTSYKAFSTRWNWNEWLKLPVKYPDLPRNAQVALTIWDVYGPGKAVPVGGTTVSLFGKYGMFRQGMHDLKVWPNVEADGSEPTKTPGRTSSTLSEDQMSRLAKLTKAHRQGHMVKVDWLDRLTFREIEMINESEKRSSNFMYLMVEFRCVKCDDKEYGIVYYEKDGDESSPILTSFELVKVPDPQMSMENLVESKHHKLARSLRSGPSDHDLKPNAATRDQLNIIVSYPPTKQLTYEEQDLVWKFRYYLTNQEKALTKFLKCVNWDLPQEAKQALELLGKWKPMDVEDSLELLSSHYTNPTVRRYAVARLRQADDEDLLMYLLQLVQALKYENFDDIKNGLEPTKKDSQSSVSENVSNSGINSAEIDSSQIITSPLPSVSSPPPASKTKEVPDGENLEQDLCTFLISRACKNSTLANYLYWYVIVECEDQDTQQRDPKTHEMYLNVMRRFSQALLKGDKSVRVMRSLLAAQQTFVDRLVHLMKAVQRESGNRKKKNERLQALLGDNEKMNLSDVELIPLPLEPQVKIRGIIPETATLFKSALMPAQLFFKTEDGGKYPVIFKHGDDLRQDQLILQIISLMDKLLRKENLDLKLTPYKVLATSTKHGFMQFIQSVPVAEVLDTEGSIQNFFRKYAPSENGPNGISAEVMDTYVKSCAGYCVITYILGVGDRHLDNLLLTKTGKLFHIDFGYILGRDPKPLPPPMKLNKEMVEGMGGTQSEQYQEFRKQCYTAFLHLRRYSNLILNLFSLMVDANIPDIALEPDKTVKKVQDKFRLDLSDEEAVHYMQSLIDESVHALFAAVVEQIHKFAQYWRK
EXPERIMENTAL ENDPOINT: IC50 (nM)
Numbers only, in nM.

>  <SMI>
Cc1[nH]c2ccccc2c1CCNCc1ccc(/C=C/C(=O)NO)cc1

>  <MEASUREMENT TARGET>
Phosphatidylinositol 3-kinase catalytic subunit type 3 (Homo sapiens)

>  <MEASURED NUMBER>
5

$$$$

Just so you know, measured IC50 for C[C@@H]1COCCN1c1cc(N2CCCC[C@@H]2C(F)(F)F)[nH]c(=O)c1 came out at 14
